Biological target: T1, IRF4 DBD S114N (Homo sapiens, UniProt Q15306 20-132, S114N)
T1 sequence: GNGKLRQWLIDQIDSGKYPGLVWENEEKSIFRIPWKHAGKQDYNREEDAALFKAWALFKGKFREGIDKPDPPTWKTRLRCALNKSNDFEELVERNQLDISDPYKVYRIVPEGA
Assay: FP; FP: PBS + 0.05% Tween20, 5 nM DNA, 1 h, room temperature; SPR: Biacore S200, SA chip, protein 0.1-4500 nM, running buffer not given in material; errors are SD
Settings: protein: recombinant; tags: N-terminal His8-linker-His8-TEV, cleaved; label: 3' fluorescein (FAM); hairpin, TTTT loop
readout: pKd
Numbers only, as −log10 of the molar value.

Kindly note the recorded pKd for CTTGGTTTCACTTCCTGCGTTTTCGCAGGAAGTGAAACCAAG (structured_DNA) [IRE hairpin (FAM)] , which is 6.74

The values you see were collected from paper doi:10.1101/2025.03.12.642038.
